Target: human IL-12 receptor (IL-12Rβ1 and IL-12Rβ2) on HEK-Blue IL-12 cells (human, UniProt P42701 24-662; Q99665 24-862)
Sequence (Q99665 24-862, chain 2 of 2, other chains not shown): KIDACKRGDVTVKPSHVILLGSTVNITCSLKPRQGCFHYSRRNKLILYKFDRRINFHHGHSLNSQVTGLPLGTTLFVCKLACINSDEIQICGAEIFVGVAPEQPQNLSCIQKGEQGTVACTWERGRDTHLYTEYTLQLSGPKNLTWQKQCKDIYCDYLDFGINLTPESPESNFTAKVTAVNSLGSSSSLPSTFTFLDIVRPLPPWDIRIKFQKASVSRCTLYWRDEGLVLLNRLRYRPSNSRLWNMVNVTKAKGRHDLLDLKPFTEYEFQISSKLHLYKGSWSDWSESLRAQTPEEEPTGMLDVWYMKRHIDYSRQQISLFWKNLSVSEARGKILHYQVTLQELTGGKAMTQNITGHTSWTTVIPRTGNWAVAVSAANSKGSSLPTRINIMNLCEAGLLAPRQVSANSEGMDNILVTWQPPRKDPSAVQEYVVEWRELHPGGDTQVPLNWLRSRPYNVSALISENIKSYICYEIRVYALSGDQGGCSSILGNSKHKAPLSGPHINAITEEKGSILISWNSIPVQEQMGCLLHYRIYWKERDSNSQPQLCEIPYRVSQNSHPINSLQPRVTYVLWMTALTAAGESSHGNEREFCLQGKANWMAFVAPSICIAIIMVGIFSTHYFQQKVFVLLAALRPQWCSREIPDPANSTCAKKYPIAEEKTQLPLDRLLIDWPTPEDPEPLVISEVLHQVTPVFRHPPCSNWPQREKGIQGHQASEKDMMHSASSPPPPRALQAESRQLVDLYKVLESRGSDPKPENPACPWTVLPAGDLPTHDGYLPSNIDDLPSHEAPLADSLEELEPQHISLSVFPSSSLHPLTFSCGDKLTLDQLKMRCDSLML
Test: cell-based or functional assay
The following binders are shown together with reported EC50 values.

Check out these entries, answers already filled in.
1. DGL568 (bispecific antibody, V domains shown, 233B1 x 13B2) V domain 1: QVQLVESGGGLVQAGGSLRLSCAASRSISSFNEMAWYRQAPGEQRELVATIVSTVGFTNYADSVKGRFTISRDNAKNTVYLQMNSLKAEDTAVYYCNARRISTDYWGQGTQVTVEP V domain 2: QVQLVESGGGLVRPGGSLRLSCAASGFTFSSNGMHWFRQAPGKGLEWVSSIGSGGTSIYYADSVKGRFTISRDNAKNTLYLQMNSLKSDDTAVYYCSKEVTGATRGQGTQVTVEP ... > 100 nM
2. DGL569 (bispecific antibody, V domains shown, 233B1 x 19B2) V domain 1: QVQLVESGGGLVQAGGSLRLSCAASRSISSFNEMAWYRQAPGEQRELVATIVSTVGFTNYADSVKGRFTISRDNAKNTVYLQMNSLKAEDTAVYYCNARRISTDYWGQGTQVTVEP V domain 2: QVQLVESGGGLVQPGGSLRLSCAASGFTFSNYAMSWVRQAPGKGLEWVSAINSDGTSTSYADSVKGQFTISRDNAKNTLYLQMNSLKPEDTAVYYCTKWEGDTDSDYKFKDYWGQGTQVTVEP ... 5.2e-09 M (implied)

State the recorded EC50 for this entry: DGL584 (bispecific antibody, V domains shown) V domain 1: QVQLQESGGGLVQAGGSLRLSCAASGSIASINAMGWYRQAPGKQRDFVARIQLSGSTNYAHSVRGRFTISRDNAKNTVYLQMNNLKPEDTAVYVCAASNTGSLYGLRNYWGQGTQVTVEP V domain 2: QVQLVESGGGLVQPGGSLRLSCAASGFTFSSKAMHWFRQAPGKGLEWVSSINSGGAITYYKDSVKGRFTVSRDNAKNILYLEMNSLKPEDTALYYCATDTDGRTRGQGTQVTVEP
> 100 nM

And DGL571 (bispecific antibody, V domains shown) V domain 1: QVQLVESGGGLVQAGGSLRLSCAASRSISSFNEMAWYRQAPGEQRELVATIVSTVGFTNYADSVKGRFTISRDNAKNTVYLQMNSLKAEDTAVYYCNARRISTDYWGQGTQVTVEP V domain 2: QVQLVESGGGLVQPGGSLRLSCAASGFTFSNYAMSWIRQGPERGFEWVSRINSGGGTTSYADSVKGRFTISRDNAKNTLYLQMNSLKPEDTAVYYCAKHSHPDYSSNYYRPGQGTQVTVEP ?
> 100 nM

Next entry: DGL527 (bispecific antibody, V domains shown) V domain 1: EVQLVESGGGLVQPGGSLTLSCTASGFRFSDRSMGWYRQAPGKQRELVAAITVGGSTNYADSVKGRFTISRDNAKNTVYLQMNSLKPEDTALYYCNRRYPPDDYWGQGTQVTVEP V domain 2: QVQLVESGGGLVRPGGSLRLSCAASGFTFSSNGMHWFRQAPGKGLEWVSSIGSGGTSIYYADSVKGRFTISRDNAKNTLYLQMNSLKSDDTAVYYCSKEVTGATRGQGTQVTVEP
> 100 nM
